Just for reference, patent US10076519B2 is where these values come from.

Tested on: rabbit skeletal myofibrils (fast skeletal myofibrils)
MEASUREMENT_PROTOCOL: Activation of fast skeletal myofibrils (PUMA assay, PK/LDH-coupled ATPase at pCa25)
Type: biochemical
SETTINGS: median AC1.4 class, procedure of Example 39
MEASURE_NAME: Mean AC1.4

Sample records with Mean AC1.4:
| MOLECULE | MEASURE_NAME | OBSERVED |
| --- | --- | --- |
| O=C1NCc2cc(-c3ccc(NCC4(c5ncccc5F)CCC4)nn3)sc21 | Mean AC1.4 | B (B=1-10 uM) |
| OC(c1cnc(-c2ccc(NCC3(c4ncccc4F)CCC3)nn2)s1)C(F)(F)F (centres unmarked) | Mean AC1.4 | B (B=1-10 uM) |
| CC(C)(Nc1ccc(-c2cccc(C(N)=O)c2)nn1)c1cccc(F)c1 | Mean AC1.4 | B (B=1-10 uM) |
| NC(=O)[C@@H]1C[C@@H]1c1ccc(NCC2(c3ncccc3F)CCC2)nn1 | Mean AC1.4 | D (D=>20 uM) |
| N#Cc1ccc(F)c(-c2ccc(NC[C@]3(c4ncccc4F)C[C@H](F)C3)nn2)c1 | Mean AC1.4 | B (B=1-10 uM) |
| O=C(NCc1cnc(-c2ccc(NCC3(c4ncccc4F)CCC3)nn2)s1)[C@@H]1CS(=O)(=O)CCN1 | Mean AC1.4 | A (A=<1 uM) |
| COc1ccc(-c2ccc(NCC3(c4ncccc4F)CCC3)nn2)cc1C(=O)O | Mean AC1.4 | D (D=>20 uM) |
| COC(=O)c1csc(-c2ccc(NCC3(c4ncccc4F)CCC3)nn2)n1 | Mean AC1.4 | D (D=>20 uM) |
| COc1nc(-c2ccc(NCC3(c4ncccc4F)CCC3)nn2)sc1C(=O)O | Mean AC1.4 | C (C=10-20 uM) |
| O=C(O)c1ccc(-c2ccc(NC3(c4ncccc4F)CCC3)nn2)s1 | Mean AC1.4 | D (D=>20 uM) |

Ask: Value wanted: Mean AC1.4 (rabbit skeletal myofibrils (fast skeletal myofibrils)) of entry NC(=O)c1ccc(-c2ccc(NCC3(c4ncccc4F)CCC3)nn2)s1
Result: A (A=<1 uM)

Ask: Value wanted: Mean AC1.4 (rabbit skeletal myofibrils (fast skeletal myofibrils)) of entry NC(=O)c1cc(-c2ccc(NCC3(c4ncccc4F)CCC3)nn2)ncn1
Result: B (B=1-10 uM)

Ask: Value wanted: Mean AC1.4 (rabbit skeletal myofibrils (fast skeletal myofibrils)) of entry CC(C)(Nc1ccc(-c2ccccc2)nn1)c1ccccc1
Result: B (B=1-10 uM)

Ask: Value wanted: Mean AC1.4 (rabbit skeletal myofibrils (fast skeletal myofibrils)) of entry NC(=O)c1nccc(-c2ccc(NCC3(c4ncccc4F)CCC3)nn2)n1
Result: D (D=>20 uM)

Ask: Value wanted: Mean AC1.4 (rabbit skeletal myofibrils (fast skeletal myofibrils)) of entry NC(=O)c1nnc(-c2ccc(NCC3(c4ncccc4F)CCC3)nn2)[nH]1
Result: C (C=10-20 uM)

Ask: Value wanted: Mean AC1.4 (rabbit skeletal myofibrils (fast skeletal myofibrils)) of entry c1ccc(-c2ccc(NC3(c4ccccc4)CCC3)nn2)cc1
Result: B (B=1-10 uM)

Ask: Value wanted: Mean AC1.4 (rabbit skeletal myofibrils (fast skeletal myofibrils)) of entry O=C(NCc1cnc(-c2ccc(NCC3(c4ncccc4F)CCC3)nn2)s1)c1cnc[nH]1
Result: A (A=<1 uM)

Ask: Value wanted: Mean AC1.4 (rabbit skeletal myofibrils (fast skeletal myofibrils)) of entry NC(=O)Cn1nnc(-c2ccc(NCC3(c4ncccc4F)CCC3)nn2)n1
Result: D (D=>20 uM)

Ask: Value wanted: Mean AC1.4 (rabbit skeletal myofibrils (fast skeletal myofibrils)) of entry CC(C)(O)c1ncccc1-c1ccc(NCC2(c3ncccc3F)CCC2)nn1
Result: D (D=>20 uM)

* * *

System: rabbit skeletal myofibrils (fast skeletal myofibrils)
MEASUREMENT_PROTOCOL: Activation of fast skeletal myofibrils (PUMA assay, PK/LDH-coupled ATPase at pCa25)
Assay type: biochemical
SETTINGS: median AC1.4 class, procedure of Example 39
MEASURE_NAME: Mean AC1.4

| SMILES_STRUCTURE | MEASURE_NAME | OBSERVED |
| --- | --- | --- |
| Fc1cccnc1C1(CNc2ccc(C3=CCCCC3)nn2)CCC1 | Mean AC1.4 | A (A=<1 uM) |
| N#Cc1cccc(-c2ccc(NC[C@]3(c4ncccc4F)C[C@H](F)C3)nn2)c1 | Mean AC1.4 | B (B=1-10 uM) |
| NC(=O)c1ccc(F)c(-c2ccc(NC3(c4ncccc4F)CCCC3)nn2)c1 | Mean AC1.4 | A (A=<1 uM) |
| Fc1ccc(C2(Nc3ccc(-c4ccc5[nH]ncc5c4)nn3)CCC2)cc1 | Mean AC1.4 | A (A=<1 uM) |
| CC(C)NC(=O)c1ccc(F)c(-c2ccc(NC[C@]3(c4ncccc4F)C[C@H](F)C3)nn2)c1 | Mean AC1.4 | A (A=<1 uM) |
| Fc1cccnc1C1(CNc2ccc(-c3nc4cccnc4s3)nn2)CCC1 | Mean AC1.4 | B (B=1-10 uM) |
| Nc1n[nH]c2ccc(-c3ccc(NC4(c5ncccc5F)CCC4)nn3)cc12 | Mean AC1.4 | B (B=1-10 uM) |

Ask: Quick one: Mean AC1.4 of CC(C)(Nc1ccc(-c2cccc(C(N)=O)c2)nn1)c1ccccc1 ?
Result: B (B=1-10 uM)

* * *

System: rabbit skeletal myofibrils (fast skeletal myofibrils)
MEASUREMENT_PROTOCOL: Activation of fast skeletal myofibrils (PUMA assay, PK/LDH-coupled ATPase at pCa25)
Assay type: biochemical
SETTINGS: AC1.4 determined according to the procedure of Example 39; reported as class symbols
MEASURE_NAME: Mean AC1.4

Sample records with Mean AC1.4:
| SMILES_STRUCTURE | Mean AC1.4 |
| --- | --- |
| CC(C)(CNc1ccc(-c2ccc3nc(N)[nH]c(=O)c3c2)nn1)c1ccc(F)cc1 | A (A=<1 uM) |
| NC(=O)c1cccc(-c2ccc(NCC3(c4cnccn4)CCC3)nn2)c1 | D (D=>20 uM) |
| Cn1cc(-c2ccc(NCC3(c4ncccc4F)CCC3)nn2)cn1 | D (D=>20 uM) |
| CC(C)(CNc1ccc(-c2ccc3[nH]nc(I)c3c2)nn1)c1ccc(F)cc1 | B (B=1-10 uM) |
| CC(C)Nc1n[nH]c2ccc(-c3ccc(NCC(C)(C)c4ccc(F)cc4)nn3)cc12 | A (A=<1 uM) |

Ask: Quick one: Mean AC1.4 of COc1cccc(C2(CNc3ccc(-c4ccc5cn[nH]c5c4)nn3)CCC2)n1 ?
Result: A (A=<1 uM)

Ask: Quick one: Mean AC1.4 of Fc1cccnc1C1(CNc2ccc(-c3cn[nH]c3)nn2)CCC1 ?
Result: C (C=10-20 uM)

Ask: Quick one: Mean AC1.4 of COc1ncc(-c2ccc(NCC3(c4ccc(F)cc4)CCC3)nn2)cn1 ?
Result: B (B=1-10 uM)

Ask: Quick one: Mean AC1.4 of CC(C)(CNc1ccc(-c2ccc(C#N)nc2)nn1)c1ccc(F)cc1 ?
Result: C (C=10-20 uM)

* * *

Tested on: rabbit skeletal myofibrils (fast skeletal myofibrils)
MEASUREMENT_PROTOCOL: Activation of fast skeletal myofibrils (PUMA assay, PK/LDH-coupled ATPase at pCa25)
Format: biochemical
SETTINGS: median AC1.4 class, procedure of Example 39
MEASURE_NAME: Mean AC1.4

| SMILES_STRUCTURE | OBSERVED |
| --- | --- |
| CS(=O)(=O)N1Cc2nc(-c3ccc(NCC4(c5ncccc5F)CCC4)nn3)sc2C1 | D (D=>20 uM) |
| NC(=O)c1sc(-c2ccc(NCC3(c4ncccc4F)CCC3)nn2)nc1O | B (B=1-10 uM) |
| O=c1[nH]nc(-c2ccc(-c3ccc(NCC4(c5ncccc5F)CCC4)nn3)s2)[nH]1 | A (A=<1 uM) |
| NC(=O)c1nc(-c2ccc(NCC3(c4ncccc4F)CCC3)nn2)no1 | B (B=1-10 uM) |
| Cn1c(C(N)=O)cnc1-c1ccc(NCC2(c3ncccc3F)CCC2)nn1 | B (B=1-10 uM) |
| COC(=O)N1CC(c2ccc(NCC3(c4ncccc4F)CCC3)nn2)C1 | D (D=>20 uM) |

Ask: Quick one: Mean AC1.4 of Fc1cccnc1C1(CNc2ccc(-c3nc4c(s3)CNC4)nn2)CCC1 ?
Result: D (D=>20 uM)

Ask: Quick one: Mean AC1.4 of NS(=O)(=O)c1cnc(-c2ccc(NCC3(c4ncccc4F)CCC3)nn2)s1 ?
Result: B (B=1-10 uM)

Ask: Quick one: Mean AC1.4 of COc1cccc(C2(Nc3ccc(-c4cc(C(N)=O)ccc4F)nn3)CCC2)n1 ?
Result: A (A=<1 uM)

Ask: Quick one: Mean AC1.4 of CNC(=O)c1ccc(F)c(-c2ccc(NC[C@]3(c4ncccc4F)C[C@H](F)C3)nn2)c1 ?
Result: A (A=<1 uM)

Ask: Quick one: Mean AC1.4 of Fc1cccnc1C1(CNc2ccc(C3CCCCC3)nn2)CCC1 ?
Result: B (B=1-10 uM)

Ask: Quick one: Mean AC1.4 of Oc1ccc2nc(-c3ccc(NCC4(c5ncccc5F)CCC4)nn3)sc2n1 ?
Result: B (B=1-10 uM)

Ask: Quick one: Mean AC1.4 of CCOC(=O)c1ccc(NCC2(c3ncccc3F)CCC2)nn1 ?
Result: D (D=>20 uM)

Ask: Quick one: Mean AC1.4 of NC(=O)c1ccc(C2(Nc3ccc(-c4cccc(C(N)=O)c4)nn3)CCC2)cc1 ?
Result: D (D=>20 uM)

Ask: Quick one: Mean AC1.4 of CC(C)(Nc1ccc(-c2cc(C(N)=O)ccc2F)nn1)c1ncccc1F ?
Result: B (B=1-10 uM)

Ask: Quick one: Mean AC1.4 of NC(=O)c1ccc(F)c(-c2ccc(NC3(c4ncccc4Cl)CCC3)nn2)c1 ?
Result: A (A=<1 uM)

Ask: Quick one: Mean AC1.4 of NC(=O)c1csc2nc(-c3ccc(NC[C@]4(c5ncccc5F)C[C@H](F)C4)nn3)cn12 ?
Result: A (A=<1 uM)
